Cited source: paper PMC11637875

System: FHC
Experiment: Cytotoxicity on normal human cells (MTT)
Type: cell-based
Description: Cell viability was measured by MTT assays. MDA-MB-231, MCF-10A, L02, FHC, PNT1A, HEL-299, and HEK-293 cell lines were seeded in 96-well plates at 5 ×10^4 cells/well and incubated overnight. Different concentrations of PPNR1-5 or positive control were then added to each well and cultured at 37°C for 72 h. […] The absorbance was determined using an enzyme-linked immunosorbent assay reader at a test wavelength of 570 nm. […] The data were analyzed using GraphPad Prism 9 software.

structure.string: NC(N)=NCCC[C@H](NCN1CCN(C(=O)c2cc(Cc3n[nH]c(=O)c4ccccc34)ccc2F)CC1)C(=O)O
IC50: > 10 µM

----------
biological target: EGFR (Homo sapiens)
Sequence (P00533 25-1210): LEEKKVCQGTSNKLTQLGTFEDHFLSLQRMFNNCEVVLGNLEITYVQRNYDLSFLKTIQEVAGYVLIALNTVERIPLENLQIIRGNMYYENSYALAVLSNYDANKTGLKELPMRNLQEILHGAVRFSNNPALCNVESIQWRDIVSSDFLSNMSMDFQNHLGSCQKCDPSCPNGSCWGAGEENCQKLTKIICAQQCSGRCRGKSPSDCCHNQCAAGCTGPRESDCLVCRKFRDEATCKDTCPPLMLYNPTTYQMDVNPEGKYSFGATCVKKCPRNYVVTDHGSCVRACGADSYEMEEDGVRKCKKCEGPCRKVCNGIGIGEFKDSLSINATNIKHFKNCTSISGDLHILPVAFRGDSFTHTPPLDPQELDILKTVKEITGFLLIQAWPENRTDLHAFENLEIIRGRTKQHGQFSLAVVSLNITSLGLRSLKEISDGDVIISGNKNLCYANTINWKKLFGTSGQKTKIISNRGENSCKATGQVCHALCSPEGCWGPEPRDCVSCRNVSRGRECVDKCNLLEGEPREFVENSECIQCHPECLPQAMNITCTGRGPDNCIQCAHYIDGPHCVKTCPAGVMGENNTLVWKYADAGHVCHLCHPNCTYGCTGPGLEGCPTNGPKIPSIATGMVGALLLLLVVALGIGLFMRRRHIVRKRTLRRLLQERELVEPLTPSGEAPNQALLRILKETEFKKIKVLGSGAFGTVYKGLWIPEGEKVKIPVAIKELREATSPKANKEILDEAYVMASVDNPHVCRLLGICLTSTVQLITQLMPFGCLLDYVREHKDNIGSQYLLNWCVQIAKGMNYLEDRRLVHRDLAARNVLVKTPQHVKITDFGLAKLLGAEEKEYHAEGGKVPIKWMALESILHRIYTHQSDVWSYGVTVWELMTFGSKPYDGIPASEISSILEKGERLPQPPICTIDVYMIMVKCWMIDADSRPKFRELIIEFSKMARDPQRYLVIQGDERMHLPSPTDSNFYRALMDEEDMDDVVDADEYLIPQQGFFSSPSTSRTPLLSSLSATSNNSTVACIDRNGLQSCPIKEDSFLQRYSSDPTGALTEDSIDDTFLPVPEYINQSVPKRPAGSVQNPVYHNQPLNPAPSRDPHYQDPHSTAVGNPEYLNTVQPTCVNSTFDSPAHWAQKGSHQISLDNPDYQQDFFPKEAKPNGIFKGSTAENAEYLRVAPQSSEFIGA

structure.string: NC(N)=NCCC[C@H](NCN1CCN(C(=O)c2cc(Cc3n[nH]c(=O)c4ccccc34)ccc2F)CC1)C(=O)O
IC50: > 10 µM
